Data credit: ChEMBL document CHEMBL1145449

Test system: A549
Experiment: Antitumor activity against human A549 cells
Type: functional, cell-based
endpointName: EC50 (µg/mL)

>  <smilesRepresentation>
C[C@]12C(=O)C=CCC1=CC[C@@H]1[C@@H]2CC[C@]2(O)C(=O)O[C@@]3(C)[C@H]4C[C@]5(C)[C@@H](CO[C@@]16O[C@@]32[C@H]5C6=O)C(=O)O4

>  <endpointName>
EC50

>  <reportedResult>
5.9

$$$$
>  <smilesRepresentation>
C[C@@]12C[C@H]3OC(=O)[C@@H]1CO[C@@]14O[C@]5([C@H]2C1=O)[C@@](O)(CC[C@H]1[C@H]4C[C@@H](O)[C@@]2(O)CC=CC(=O)[C@]12C)C(=O)O[C@@]35C

>  <endpointName>
EC50

>  <reportedResult>
1.6

$$$$
>  <smilesRepresentation>
C[C@@]12C[C@H]3OC(=O)[C@@H]1CO[C@]14O[C@]5([C@H]2C1=O)[C@@](O)(CC[C@H]1[C@H]4C[C@H]2O[C@]24CC=CC(=O)[C@]14C)C(=O)O[C@@]35C

>  <endpointName>
EC50

>  <reportedResult>
1.3

$$$$
>  <smilesRepresentation>
CO[C@@H]1CC(=O)[C@]2(C)[C@H]3CC[C@@]4(O)C(=O)O[C@@]5(C)[C@H]6C[C@@]7(C)C8C(=O)[C@@](OC[C@H]7C(=O)O6)(O[C@]845)[C@@H]3C[C@H]3O[C@]32C1

>  <endpointName>
EC50

>  <reportedResult>
16.3

$$$$
